Target: Peroxisome proliferator-activated receptor gamma (Homo sapiens); further: assay procedure not described here
Sequence (P37231 whole entry): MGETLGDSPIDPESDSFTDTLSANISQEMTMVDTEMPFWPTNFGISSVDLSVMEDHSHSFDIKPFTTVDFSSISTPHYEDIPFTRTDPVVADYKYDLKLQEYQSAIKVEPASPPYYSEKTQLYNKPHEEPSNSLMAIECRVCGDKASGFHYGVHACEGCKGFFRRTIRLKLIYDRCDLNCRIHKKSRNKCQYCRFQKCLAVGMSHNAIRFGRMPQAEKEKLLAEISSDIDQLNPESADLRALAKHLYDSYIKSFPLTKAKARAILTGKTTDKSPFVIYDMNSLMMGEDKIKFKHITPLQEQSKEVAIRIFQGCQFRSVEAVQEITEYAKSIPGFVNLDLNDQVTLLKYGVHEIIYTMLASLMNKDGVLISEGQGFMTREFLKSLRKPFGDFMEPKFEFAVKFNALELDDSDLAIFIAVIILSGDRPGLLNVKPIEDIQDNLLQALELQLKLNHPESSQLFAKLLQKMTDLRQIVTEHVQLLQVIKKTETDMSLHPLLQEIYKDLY
Type: functional
Reported AC50 by item:

| molecule | AC50 |
| --- | --- |
| CCOc1cc(CC(=O)N[C@@H](CC(C)C)c2ccccc2N2CCCCC2)ccc1C(=O)O [REPAGLINIDE] | > 30 µM |
| CCCC[C@H](C)C[C@H](O)/C=C/[C@H]1[C@H](O)CC(=O)[C@@H]1CCCC/C=C/C(=O)O [LIMAPROST] | > 30 µM |
| CCCN(CCC)CCc1cccc2c1CC(=O)N2 [ROPINIROLE] | > 30 µM |
| Nc1nc2c(c(=O)[nH]1)N(C=O)C(CNc1ccc(C(=O)N[C@@H](CCC(=O)O)C(=O)O)cc1)CN2 (some centres undefined) [LEUCOVORIN] | > 30 µM |
| COc1cc2c(Nc3ccc(Br)cc3F)ncnc2cc1OCC1CCN(C)CC1 [VANDETANIB] | > 30 µM |
| COC(=O)[C@H](c1ccccc1Cl)N1CCc2sccc2C1 [CLOPIDOGREL] | > 30 µM |
| O=C(O)c1ccccc1OP(=O)(O)O [FOSFOSAL] | > 30 µM |
| CCN(CC)C(=O)C1CN2CCc3cc(OC)c(OC)cc3C2CC1OC(C)=O (centres undefined) [BENZQUINAMIDE] | > 30 µM |
| CCCN(CCc1cccs1)[C@H]1CCc2c(O)cccc2C1 [ROTIGOTINE] | > 30 µM |
